target: HDAC1 (Homo sapiens); test: HTRF enzyme inhibition assay, HDAC1; conditions: read-out: % enzyme inhibition HDAC
Could you label it Met if measured inhibition at 1 µM is 60% or higher, and Not met otherwise?

| smiles.code | label.value |
| --- | --- |
| COc1ccc2c(c1)NC(=O)[C@@]21[C@@H](C(=O)c2ccccc2)[C@H](c2ccc(NC(=O)CCCCCCC(=O)NO)cc2)[C@H]2CSCN21 | Met |
| Cc1cccc2c1NC(=O)[C@@]21[C@@H](C(=O)c2ccccc2)[C@H](c2ccc(NC(=O)CCCCCCC(=O)NO)cc2)[C@H]2CSCN21 | Met |
| Nc1ccccc1NC(=O)CCCCC(=O)Nc1ccc([C@@H]2[C@H]3CSCN3[C@]3(C(=O)Nc4cc(Cl)ccc43)[C@H]2C(=O)c2ccccc2)cc1 | Not met |

Problem: Is it the case that O=C(CCCCCCCCC(=O)Nc1ccc([C@@H]2[C@H]3CSCN3[C@]3(C(=O)Nc4cc(Cl)ccc43)[C@H]2C(=O)c2ccccc2)cc1)NO has inhibition at 1 µM reaching or exceeding 60%?
Solution: Met

Problem: Is it the case that CN(C)c1ccc(C(=O)[C@H]2[C@H](c3ccc(NC(=O)CCCCCCC(=O)NO)cc3)[C@H]3CSCN3[C@]23C(=O)Nc2ccccc23)cc1 has inhibition at 1 µM reaching or exceeding 60%?
Solution: Met

###

target: HDAC9 (Homo sapiens, UniProt Q9UKV0); test: HDAC isoform selectivity, HDAC9; conditions: HDAC subtype panel
Sequence (Q9UKV0 whole entry, canonical isoform): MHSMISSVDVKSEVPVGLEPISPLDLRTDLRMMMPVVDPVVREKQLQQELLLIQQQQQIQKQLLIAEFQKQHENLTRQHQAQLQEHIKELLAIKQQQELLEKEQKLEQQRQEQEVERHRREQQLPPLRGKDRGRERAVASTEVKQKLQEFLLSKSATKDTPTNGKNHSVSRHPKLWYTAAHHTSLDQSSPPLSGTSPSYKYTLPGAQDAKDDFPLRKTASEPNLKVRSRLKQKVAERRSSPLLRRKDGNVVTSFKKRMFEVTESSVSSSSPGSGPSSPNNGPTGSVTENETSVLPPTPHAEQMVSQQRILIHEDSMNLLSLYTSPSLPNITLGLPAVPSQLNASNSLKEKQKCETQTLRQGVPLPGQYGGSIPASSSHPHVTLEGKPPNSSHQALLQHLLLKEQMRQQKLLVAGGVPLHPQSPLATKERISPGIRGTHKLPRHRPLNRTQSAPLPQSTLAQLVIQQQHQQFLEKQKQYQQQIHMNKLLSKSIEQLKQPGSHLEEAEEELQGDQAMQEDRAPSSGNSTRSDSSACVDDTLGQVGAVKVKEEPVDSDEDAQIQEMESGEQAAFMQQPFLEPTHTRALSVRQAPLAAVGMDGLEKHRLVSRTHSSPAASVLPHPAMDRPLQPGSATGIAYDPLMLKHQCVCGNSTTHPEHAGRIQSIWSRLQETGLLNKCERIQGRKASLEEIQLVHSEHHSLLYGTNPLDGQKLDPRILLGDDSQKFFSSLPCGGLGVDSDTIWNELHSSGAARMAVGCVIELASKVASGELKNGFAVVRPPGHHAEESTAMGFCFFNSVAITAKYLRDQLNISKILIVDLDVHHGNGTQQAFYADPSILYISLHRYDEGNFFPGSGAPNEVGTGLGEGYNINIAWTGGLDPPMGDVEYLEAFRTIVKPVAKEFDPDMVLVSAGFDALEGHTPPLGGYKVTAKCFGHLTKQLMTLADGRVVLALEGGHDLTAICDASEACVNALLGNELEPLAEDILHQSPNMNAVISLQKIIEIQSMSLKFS
property.name: IC50

Problem: For O=C(CCCCCCC(=O)N1CCC(C(=O)Nc2ccc([C@@H]3[C@H]4CSCN4[C@]4(C(=O)Nc5cc(Cl)ccc54)[C@H]3C(=O)c3ccccc3)cc2)CC1)NO [compound 11b] , what is its reported IC50?
Solution: > 10 µM

###

This listing pairs molecules with measured melting point.

Take a look at these entries with their results.
| molecule | melting point |
| --- | --- |
| O=C(CCCCCCCCC(=O)Nc1ccc([C@@H]2[C@H]3CSCN3[C@]3(C(=O)Nc4cc(Cl)ccc43)[C@H]2C(=O)c2ccccc2)cc1)NO | 137.7 to 139 °C |
| O=C(CCCCCCCCC(=O)Nc1ccc([C@@H]2[C@H]3CSCN3[C@]3(C(=O)Nc4ccccc43)[C@H]2C(=O)c2ccccc2)cc1)NO | 131.9 to 132.1 °C |
| O=C(CCCCCCC(=O)Nc1ccc([C@@H]2[C@H]3CCCN3[C@]3(C(=O)Nc4cc(Cl)ccc43)[C@H]2C(=O)c2ccccc2)cc1)NO | 143.4 to 144.5 °C |
| Nc1ccccc1NC(=O)CCCCCCC(=O)Nc1ccc([C@@H]2[C@H]3CSCN3[C@]3(C(=O)Nc4ccccc43)[C@H]2C(=O)c2ccccc2)cc1 | 131.7 to 132.9 °C |
| O=C(CCC(=O)Nc1ccc([C@@H]2[C@H]3CSCN3[C@]3(C(=O)Nc4ccccc43)[C@H]2C(=O)c2ccccc2)cc1)NO | 145.1 to 146.3 °C |

Problem: For Nc1ccccc1NC(=O)CCCCCCC(=O)Nc1ccc([C@@H]2[C@H]3CSCN3[C@]3(C(=O)Nc4cc(Cl)ccc43)[C@H]2C(=O)c2ccccc2)cc1 , what is its reported melting point?
Solution: 145.2 to 146.4 °C

Problem: For CN(C)c1ccc(C(=O)[C@H]2[C@H](c3ccc(NC(=O)CCCCCCC(=O)NO)cc3)[C@H]3CSCN3[C@]23C(=O)Nc2ccccc23)cc1 , what is its reported melting point?
Solution: 148.7 to 150 °C

Problem: For Nc1ccccc1NC(=O)CCCCC(=O)Nc1ccc([C@@H]2[C@H]3CSCN3[C@]3(C(=O)Nc4cc(Cl)ccc43)[C@H]2C(=O)c2ccccc2)cc1 , what is its reported melting point?
Solution: 148.9 to 150 °C

Problem: For O=C(CCCCCCC(=O)Nc1ccc([C@@H]2[C@H]3CSCN3[C@]3(C(=O)Nc4ccc(Cl)cc43)[C@H]2C(=O)c2ccccc2)cc1)NO , what is its reported melting point?
Solution: 154.6 to 156.2 °C

###

Target: HDAC10 (Homo sapiens, UniProt Q969S8)
Sequence (Q969S8 1-669): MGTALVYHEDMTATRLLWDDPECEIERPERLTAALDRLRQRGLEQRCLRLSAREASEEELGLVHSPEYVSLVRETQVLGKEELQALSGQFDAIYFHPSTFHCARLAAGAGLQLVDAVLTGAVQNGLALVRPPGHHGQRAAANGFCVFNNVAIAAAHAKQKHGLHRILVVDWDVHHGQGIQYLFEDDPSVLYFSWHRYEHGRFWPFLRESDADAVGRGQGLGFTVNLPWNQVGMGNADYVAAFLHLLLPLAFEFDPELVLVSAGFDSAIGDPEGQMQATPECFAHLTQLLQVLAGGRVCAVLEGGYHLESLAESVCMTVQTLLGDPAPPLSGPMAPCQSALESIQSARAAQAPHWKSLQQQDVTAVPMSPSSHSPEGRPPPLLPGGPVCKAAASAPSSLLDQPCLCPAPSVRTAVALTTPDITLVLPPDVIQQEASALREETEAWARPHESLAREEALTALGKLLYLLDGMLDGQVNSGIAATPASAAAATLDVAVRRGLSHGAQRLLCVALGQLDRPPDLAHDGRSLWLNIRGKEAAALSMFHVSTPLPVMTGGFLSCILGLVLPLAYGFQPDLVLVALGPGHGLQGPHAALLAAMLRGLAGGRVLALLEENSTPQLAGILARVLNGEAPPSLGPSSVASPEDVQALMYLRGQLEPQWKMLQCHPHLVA
Assay: HDAC isoform selectivity, HDAC10
Conditions: HDAC subtype panel
property.name: IC50
Units required after the number.

Problem: What measured IC50 is associated with O=C(CCCCCCC(=O)N1CCC(C(=O)Nc2ccc([C@@H]3[C@H]4CSCN4[C@]4(C(=O)Nc5cc(Cl)ccc54)[C@H]3C(=O)c3ccccc3)cc2)CC1)NO [compound 11b] on HDAC10 (Homo sapiens, UniProt Q969S8)?
Solution: 1490 nM

###

target: HDAC8 (Homo sapiens); experiment: HDAC isoform selectivity, HDAC8; settings: HDAC subtype panel
Sequence (Q9BY41 whole entry, canonical isoform): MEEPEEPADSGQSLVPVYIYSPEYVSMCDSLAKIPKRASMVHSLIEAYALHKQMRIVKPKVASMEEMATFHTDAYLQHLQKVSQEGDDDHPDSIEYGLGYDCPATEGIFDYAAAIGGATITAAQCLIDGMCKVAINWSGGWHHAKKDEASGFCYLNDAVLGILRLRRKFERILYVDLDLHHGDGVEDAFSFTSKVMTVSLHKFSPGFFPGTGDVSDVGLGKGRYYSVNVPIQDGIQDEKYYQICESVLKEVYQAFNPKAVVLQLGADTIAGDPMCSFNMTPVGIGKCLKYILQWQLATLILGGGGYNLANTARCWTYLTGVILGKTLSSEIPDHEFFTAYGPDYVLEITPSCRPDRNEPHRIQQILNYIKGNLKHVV
property.name: IC50

Problem: For O=C(CCCCCCC(=O)N1CCC(C(=O)Nc2ccc([C@@H]3[C@H]4CSCN4[C@]4(C(=O)Nc5cc(Cl)ccc54)[C@H]3C(=O)c3ccccc3)cc2)CC1)NO [compound 11b] , what is its reported IC50?
Solution: 313 nM

###

target: GST-tagged MDM2 (Homo sapiens, UniProt Q00987)
Sequence (Q00987 whole entry): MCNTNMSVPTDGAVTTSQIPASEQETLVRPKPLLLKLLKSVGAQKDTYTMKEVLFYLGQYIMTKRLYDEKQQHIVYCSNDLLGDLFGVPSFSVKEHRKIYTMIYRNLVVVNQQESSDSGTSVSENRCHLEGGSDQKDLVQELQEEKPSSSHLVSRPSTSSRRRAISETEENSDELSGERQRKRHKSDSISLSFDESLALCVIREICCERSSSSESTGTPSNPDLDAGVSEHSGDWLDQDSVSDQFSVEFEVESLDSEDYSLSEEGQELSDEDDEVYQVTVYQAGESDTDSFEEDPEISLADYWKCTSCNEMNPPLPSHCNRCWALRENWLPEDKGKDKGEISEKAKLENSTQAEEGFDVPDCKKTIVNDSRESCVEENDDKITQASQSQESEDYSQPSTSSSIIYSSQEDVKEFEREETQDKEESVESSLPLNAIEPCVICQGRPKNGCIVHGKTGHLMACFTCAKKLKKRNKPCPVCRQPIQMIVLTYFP
property.name: IC50 (nM)
Numbers only; they are read as nM.

Problem: What measured IC50 is associated with O=C(CCCCCCC(=O)N1CCC(C(=O)Nc2ccc([C@@H]3[C@H]4CSCN4[C@]4(C(=O)Nc5cc(Cl)ccc54)[C@H]3C(=O)c3ccccc3)cc2)CC1)NO [compound 11b] on GST-tagged MDM2 (Homo sapiens, UniProt Q00987)?
Solution: 339

###

target: HDAC11 (Homo sapiens, UniProt Q96DB2); assay: HDAC isoform selectivity, HDAC11; details: HDAC subtype panel
Sequence (Q96DB2 whole entry, canonical isoform): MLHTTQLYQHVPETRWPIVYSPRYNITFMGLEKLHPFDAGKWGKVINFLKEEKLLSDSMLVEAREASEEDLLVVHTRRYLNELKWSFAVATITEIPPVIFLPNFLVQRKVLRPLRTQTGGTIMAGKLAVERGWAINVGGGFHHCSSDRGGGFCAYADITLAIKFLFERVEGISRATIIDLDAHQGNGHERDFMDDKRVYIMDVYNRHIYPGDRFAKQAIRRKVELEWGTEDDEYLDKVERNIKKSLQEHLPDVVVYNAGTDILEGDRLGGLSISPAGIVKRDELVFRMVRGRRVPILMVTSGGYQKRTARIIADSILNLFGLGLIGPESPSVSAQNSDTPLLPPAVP
property.name: IC50

Problem: For O=C(CCCCCCC(=O)N1CCC(C(=O)Nc2ccc([C@@H]3[C@H]4CSCN4[C@]4(C(=O)Nc5cc(Cl)ccc54)[C@H]3C(=O)c3ccccc3)cc2)CC1)NO [compound 11b] , what is its reported IC50?
Solution: > 10 µM

###

biological target: HDAC1 (Homo sapiens, UniProt Q13547)
Sequence (Q13547 whole entry): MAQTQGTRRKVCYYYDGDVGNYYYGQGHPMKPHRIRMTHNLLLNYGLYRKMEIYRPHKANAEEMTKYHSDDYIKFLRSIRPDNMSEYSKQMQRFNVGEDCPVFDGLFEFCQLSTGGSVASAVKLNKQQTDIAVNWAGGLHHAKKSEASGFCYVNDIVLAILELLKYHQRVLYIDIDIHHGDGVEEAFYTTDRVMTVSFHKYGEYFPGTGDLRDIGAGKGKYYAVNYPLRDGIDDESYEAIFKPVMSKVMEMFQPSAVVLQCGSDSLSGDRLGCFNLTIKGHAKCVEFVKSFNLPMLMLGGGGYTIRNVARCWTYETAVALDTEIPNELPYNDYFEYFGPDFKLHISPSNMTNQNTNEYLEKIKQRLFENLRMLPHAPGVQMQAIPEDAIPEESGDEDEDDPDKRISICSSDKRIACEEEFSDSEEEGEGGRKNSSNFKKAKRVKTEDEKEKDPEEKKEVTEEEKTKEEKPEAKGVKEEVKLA
property.name: IC50 (nM)
Numbers only; they are read as nM.

Problem: For O=C(CCCCCCC(=O)N1CCC(C(=O)Nc2ccc([C@@H]3[C@H]4CSCN4[C@]4(C(=O)Nc5cc(Cl)ccc54)[C@H]3C(=O)c3ccccc3)cc2)CC1)NO [compound 11b] , what is its reported IC50?
Solution: 58

###

tested on: A431 cells; assay: MTT antiproliferative assay, A431; settings: Homo sapiens, A-431, read-out: IC50 A431
property.name: pIC50
Keep it numeric: pIC50 is minus log10 of the concentration in mol/L.

| molecule | assayed.system | observed.value |
| --- | --- | --- |
| O=C(CCCCCCC(=O)Nc1ccc([C@@H]2[C@@H](c3ccccc3)N[C@]3(C(=O)Nc4cc(Cl)ccc43)[C@H]2C(=O)c2ccccc2)cc1)NO [15a] | A431 cells | 5.16 |

Here is another molecule to look at.
Problem: For O=C(CCCCCCC(=O)N1CCC(C(=O)Nc2ccc([C@@H]3[C@H]4CSCN4[C@]4(C(=O)Nc5cc(Cl)ccc54)[C@H]3C(=O)c3ccccc3)cc2)CC1)NO [compound 11b] , what is its reported pIC50?
Solution: 5.72

###

molecular target: GST-tagged MDM2 (Homo sapiens, UniProt Q00987); construct: purchased Cisbio Co. Ltd; assay: HTRF enzyme inhibition assay, MDM2; format: biochemical; conditions: compound at 1 μM
property.name: inhibition at 1 µM (%)
Numbers only; they are read as %.

| smiles.code | inhibition at 1 µM / % |
| --- | --- |
| Nc1ccccc1NC(=O)CCCCC(=O)Nc1ccc([C@@H]2[C@H]3CSCN3[C@]3(C(=O)Nc4cc(Cl)ccc43)[C@H]2C(=O)c2ccccc2)cc1 | 57 |

Problem: For Cc1cccc2c1NC(=O)[C@@]21[C@@H](C(=O)c2ccccc2)[C@H](c2ccc(NC(=O)CCCCCCC(=O)NO)cc2)[C@H]2CSCN21 , what is its reported inhibition at 1 µM?
Solution: 23

Problem: For O=C(CCCCCCC(=O)Nc1ccc([C@@H]2[C@H]3CSCN3[C@]3(C(=O)Nc4ccc(Br)cc43)[C@H]2C(=O)c2ccccc2)cc1)NO , what is its reported inhibition at 1 µM?
Solution: 48
